Target: recombinant human OX40 fused to a His-tag (Acro Biosystems, cat. no. OX0-H5224) (human) (UniProt P43489)
Sequence (P43489 29-214 limits assumed): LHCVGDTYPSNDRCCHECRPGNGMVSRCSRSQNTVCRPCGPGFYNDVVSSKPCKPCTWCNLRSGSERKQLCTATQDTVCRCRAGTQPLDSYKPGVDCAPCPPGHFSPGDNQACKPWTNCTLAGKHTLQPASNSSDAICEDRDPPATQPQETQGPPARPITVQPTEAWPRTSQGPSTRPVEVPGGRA
Test: BLI cross-block; first Ab (competitor): IgG1-CD134-Hu106
Given measured association response, output T if it is greater than or equal to 0.02 nm and F if not.

Example results:
[
  {
    "binder": "IgG1-CD134-RG7888 (antibody, INN chains, looked up, V domains shown, IgG1) VH: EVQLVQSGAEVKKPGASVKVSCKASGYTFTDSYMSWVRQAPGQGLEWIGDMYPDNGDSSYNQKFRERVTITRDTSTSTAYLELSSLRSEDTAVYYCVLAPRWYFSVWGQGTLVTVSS VL: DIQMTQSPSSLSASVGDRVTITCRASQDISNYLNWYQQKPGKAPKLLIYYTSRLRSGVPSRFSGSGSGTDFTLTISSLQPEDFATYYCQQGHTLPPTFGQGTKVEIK",
    "category-label": "T"
  },
  {
    "binder": "IgG1-CD134-ABBV368 (antibody, INN chains, looked up, V domains shown, IgG1) VH: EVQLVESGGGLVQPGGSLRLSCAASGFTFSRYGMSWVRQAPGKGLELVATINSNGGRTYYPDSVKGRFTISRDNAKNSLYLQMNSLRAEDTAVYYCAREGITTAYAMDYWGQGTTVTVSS VL: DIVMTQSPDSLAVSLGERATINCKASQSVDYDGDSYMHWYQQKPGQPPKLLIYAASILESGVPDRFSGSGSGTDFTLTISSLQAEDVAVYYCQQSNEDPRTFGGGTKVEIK",
    "category-label": "F"
  },
  {
    "binder": "IgG1-CD134-Hu106 (antibody, from another filing, V domains shown) VH: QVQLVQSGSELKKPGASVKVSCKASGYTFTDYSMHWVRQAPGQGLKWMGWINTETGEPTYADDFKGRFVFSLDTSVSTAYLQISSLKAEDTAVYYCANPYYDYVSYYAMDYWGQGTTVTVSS VL: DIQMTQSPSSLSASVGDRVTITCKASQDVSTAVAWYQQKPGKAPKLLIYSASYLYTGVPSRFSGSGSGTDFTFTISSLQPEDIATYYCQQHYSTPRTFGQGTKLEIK",
    "category-label": "T"
  }
]

We now examine a further binder.
Item IgG1-CD134-MEDI0562 (antibody, INN chains, looked up, V domains shown, IgG1) VH: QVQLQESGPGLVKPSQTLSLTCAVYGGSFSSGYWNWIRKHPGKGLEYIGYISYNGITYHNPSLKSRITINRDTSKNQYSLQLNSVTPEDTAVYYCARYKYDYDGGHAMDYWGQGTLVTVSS VL: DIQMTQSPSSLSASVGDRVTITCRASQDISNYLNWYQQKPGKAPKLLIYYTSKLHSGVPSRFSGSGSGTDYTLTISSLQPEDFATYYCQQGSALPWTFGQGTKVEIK with association response of 0.02 nm or above?
T
